# EXPERIMENT: ATG_EGR_CIS: Attagene CIS-FACTORIAL HepG2 Assay for human Early Growth Response 1 (EGR1) (AID 2282938)
# CONDITION CONTEXT: HepG2 Attagene CIS-FACTORIAL EGR reporter mRNA; actives raise or lower the signal
Calls of active or inactive are those of the source. How the source made its calls: active means hit-call score of the fitted dose curve at least 0.9, where 1 is the maximum; inactive means score below 0.9.
Classes used: active, inactive

INSERT INTO assay_data (compound, assigned_label) VALUES
  ('COP(=O)(NC(C)=O)SC (stereo unspecified)', 'inactive'),
  ('CC(COc1ccc(Oc2ccccc2)cc1)Oc1ccccn1 (stereo unspecified)', 'active'),
  ('Nc1c(Cl)cc([N+](=O)[O-])cc1Cl', 'inactive'),
  ('C=C(C)[C@H]1Cc2c(ccc3c2O[C@@H]2COc4cc(OC)c(OC)cc4[C@@H]2C3=O)O1', 'inactive'),
  ('O=c1ccc(=O)[nH][nH]1', 'inactive'),
  ('CCOP(=O)(NC(C)C)Oc1ccc(SC)c(C)c1 (stereo unspecified)', 'inactive'),
  ('O=C(O)c1cc(Oc2ccc(C(F)(F)F)cc2Cl)ccc1[N+](=O)[O-]', 'inactive'),
  ('C[Si](Cn1cncn1)(c1ccc(F)cc1)c1ccc(F)cc1', 'active'),
  ('COc1cc(OC)nc(Sc2cccc(Cl)c2C(=O)O)n1', 'inactive'),
  ('CNC(=O)ON=C(C)SC', 'inactive'),
  ('CCCCN(CC)c1c([N+](=O)[O-])cc(C(F)(F)F)cc1[N+](=O)[O-]', 'inactive'),
  ('CNC(=O)Oc1cccc2c1OC(C)(C)O2', 'inactive'),
  ('N#CSCSC#N', 'inactive'),
  ('COP(=O)(OC)SCn1c(=O)oc2cc(Cl)cnc21', 'inactive'),
  ('Nc1nc(N)nc(NC2CC2)n1', 'inactive'),
  ('CCCOc1nn(C(=O)NS(=O)(=O)c2ccccc2C(=O)OC)c(=O)n1C', 'inactive'),
  ('CCCSP(=O)(OCC)Oc1ccc(Br)cc1Cl (stereo unspecified)', 'inactive'),
  ('CSc1nnc(C(C)(C)C)c(=O)n1N', 'inactive'),
  ('COc1cccc(C(=O)NN(C(=O)c2cc(C)cc(C)c2)C(C)(C)C)c1C', 'inactive'),
  ('CC1(C(=O)Nc2ccc(O)c(Cl)c2Cl)CCCCC1', 'active'),
  ('CCC(=NOC/C=C/Cl)C1=C(O)CC(C2CCOCC2)CC1=O (stereo unspecified)', 'inactive'),
  ('CCOP(=S)(OCC)Oc1cc(C)nc(C(C)C)n1', 'inactive'),
  ('CSc1nc(NC(C)C)nc(NC(C)C)n1', 'inactive'),
  ('COP(=O)(OC)C(O)C(Cl)(Cl)Cl (stereo unspecified)', 'active'),
  ('C[N+]1(C)CCCCC1', 'inactive'),
  ('CNc1cnn(-c2cccc(C(F)(F)F)c2)c(=O)c1Cl', 'inactive'),
  ('CCOP(=O)(OCC)Oc1cc(C)nc(C(C)C)n1', 'inactive'),
  ('CCCCOC(=O)c1ccccc1C(=O)O', 'inactive'),
  ('CN(C)[C@@H]1C(=O)C(C(N)=O)=C(O)[C@@]2(O)C(=O)C3=C(O)c4c(O)cccc4[C@@](C)(O)[C@H]3[C@H](O)[C@@H]12', 'inactive'),
  ('CC(Oc1cccc(Cl)c1)C(=O)O (stereo unspecified)', 'inactive'),
  ('CC1=NNC(=O)N(/N=C/c2cccnc2)C1', 'inactive'),
  ('CCc1cccc(CC)c1N(COC)C(=O)CCl', 'inactive'),
  ('CCNc1nc(Cl)nc(NC(C)(C)C#N)n1', 'inactive'),
  ('CCCCOC(=O)[C@@H](C)Oc1ccc(Oc2ccc(C#N)cc2F)cc1', 'inactive'),
  ('CCOP(=S)(OCC)OC(Cl)C(Cl)(Cl)Cl (stereo unspecified)', 'inactive'),
  ('CCOC(=O)CC(SP(=O)(OC)OC)C(=O)OCC (stereo unspecified)', 'inactive'),
  ('CCC(CC)Nc1c([N+](=O)[O-])cc(C)c(C)c1[N+](=O)[O-]', 'inactive'),
  ('CCOP(=S)(OCC)SCCSCC', 'inactive'),
  ('C#CC(C)(C)NC(=O)c1cc(Cl)cc(Cl)c1', 'inactive'),
  ('CN(C)C(=O)Nc1cccc(C(F)(F)F)c1', 'inactive'),
  ('CCOP(=S)(Oc1cnc(C(C)(C)C)nc1)OC(C)C (stereo unspecified)', 'active');
